system: MKL-1; test: cell viability relative to DMSO control; higher = less growth inhibition; conditions: log10 concentration (M): -8; treatment time: 6 days
Mark each entry label 1 if its cell viability sits below 80%, and label 0 for all others.

{"molecule": "N[C@H]1CC[C@H](N[C@@H]2C[C@H]2c2ccccc2)CC1", "assigned-category": "label 1"}
{"molecule": "c1ccc([C@@H]2C[C@H]2NC2CCNCC2)cc1", "assigned-category": "label 1"}
{"molecule": "O=C(NC[C@H](O)CN1CCc2ccccc2C1)c1ccnc(NC2CCC2)c1", "assigned-category": "label 0"}
{"molecule": "Cc1cc2c(cc1N1C(=O)c3cccc4c(CCCO)ccc(c34)C1=O)n(C)c(=O)n2C", "assigned-category": "label 0"}
{"molecule": "Nc1ccccc1NC(=O)c1ccc(CNC(=O)OCc2cccnc2)cc1", "assigned-category": "label 0"}
{"molecule": "CCOC(=O)NCCCC(=O)NCCc1ccccc1 [Santacruzamate A]", "assigned-category": "label 0"}
{"molecule": "Cc1sc2c(c1C)C(c1ccc(Cl)cc1)=N[C@@H](CC(=O)OC(C)(C)C)c1nnc(C)n1-2 [(+)-JQ1]", "assigned-category": "label 1"}

----------
tested on: HDFB; test: cell viability relative to DMSO control; higher = less growth inhibition; conditions: log10 concentration (M): -6; treatment time: 6 days

{"compound": "Nc1ccccc1NC(=O)c1ccc(CNC(=O)OCc2cccnc2)cc1", "unit-text": "%", "cell viability": 33.8}
{"compound": "N[C@H]1CC[C@H](N[C@@H]2C[C@H]2c2ccccc2)CC1", "unit-text": "%", "cell viability": 97.6}
{"compound": "O=C(NC[C@H](O)CN1CCc2ccccc2C1)c1ccnc(NC2CCC2)c1", "unit-text": "%", "cell viability": 112}
{"compound": "c1ccc([C@@H]2C[C@H]2NC2CCNCC2)cc1", "unit-text": "%", "cell viability": 98.5}
{"compound": "CN1CCN(c2ccc(-c3cccc(CN4CCOCC4)c3)cc2NC(=O)c2c[nH]c(=O)cc2C(F)(F)F)CC1", "unit-text": "%", "cell viability": 97.6}
{"compound": "Cc1sc2c(c1C)C(c1ccc(Cl)cc1)=N[C@@H](CC(=O)OC(C)(C)C)c1nnc(C)n1-2 [(+)-JQ1]", "unit-text": "%", "cell viability": 52}
{"compound": "CCOC(=O)NCCCC(=O)NCCc1ccccc1 [Santacruzamate A]", "unit-text": "%", "cell viability": 103}
{"compound": "Cc1cc2c(cc1N1C(=O)c3cccc4c(CCCO)ccc(c34)C1=O)n(C)c(=O)n2C", "unit-text": "%", "cell viability": 74.1}

----------
tested on: PeTa; experiment: growth inhibition relative to DMSO control (fraction); higher = stronger growth inhibition; details: GSK-LSD1 concentration 100 nM; partner concentration 1000 nM; treatment time: 6 days

{"compound": "c1ccc([C@@H]2C[C@H]2NC2CCNCC2)cc1 [GSK-LSD1] + O=C(NC[C@H](O)CN1CCc2ccccc2C1)c1ccnc(NC2CCC2)c1 [GSK591]", "growth inhibition": 0.866}
{"compound": "c1ccc([C@@H]2C[C@H]2NC2CCNCC2)cc1 [GSK-LSD1] + Cc1sc2c(c1C)C(c1ccc(Cl)cc1)=N[C@@H](CC(=O)OC(C)(C)C)c1nnc(C)n1-2 [(+)-JQ1]", "growth inhibition": 0.995}
{"compound": "c1ccc([C@@H]2C[C@H]2NC2CCNCC2)cc1 [GSK-LSD1] + CCOC(=O)NCCCC(=O)NCCc1ccccc1 [Santacruzamate A]", "growth inhibition": 0.793}
{"compound": "c1ccc([C@@H]2C[C@H]2NC2CCNCC2)cc1 [GSK-LSD1] + Cc1cc2c(cc1N1C(=O)c3cccc4c(CCCO)ccc(c34)C1=O)n(C)c(=O)n2C [BAY299]", "growth inhibition": 0.989}
{"compound": "c1ccc([C@@H]2C[C@H]2NC2CCNCC2)cc1 [GSK-LSD1] + CN1CCN(c2ccc(-c3cccc(CN4CCOCC4)c3)cc2NC(=O)c2c[nH]c(=O)cc2C(F)(F)F)CC1 [OICR9429]", "growth inhibition": 0.827}
{"compound": "c1ccc([C@@H]2C[C@H]2NC2CCNCC2)cc1 [GSK-LSD1] + Nc1ccccc1NC(=O)c1ccc(CNC(=O)OCc2cccnc2)cc1 [Entinostat]", "growth inhibition": 1}
